test system: S. aureus ATCC 13709; experiment: In vitro antibacterial susceptibility (MIC, broth microdilution); format: cell-based; conditions: CAMHB + 50% human serum
propertyLabel: MIC against S. aureus ATCC 13709, CAMHB + 50% human serum

# molecule, measuredResult
measured = [
    ("CC(C)CC(C(=O)NC1C(=O)NC(CC(N)=O)C(=O)NC2C(=O)NC3C(=O)NC(C(=O)NC(C(=O)O)c4cc(O)cc(O)c4-c4cc3ccc4O)C(OC3CC(C)(N)C(O)C(C)O3)c3ccc(c(Cl)c3)Oc3cc2cc(c3OC2OC(CO)C(O)C(O)C2OC2CC(C)(NCc3ccc(-c4ccc(Cl)cc4)cc3)C(O)C(C)O2)Oc2ccc(cc2Cl)C1O)N(C)C(=O)OCOC(=O)CCC(=O)N(CC(=O)O)CC(=O)O (stereo not drawn)", "16 µg/mL"),
]

Inquiry: Report measured MIC against S. aureus ATCC 13709, CAMHB + 50% human serum; entry is CNC(CC(C)C)C(=O)NC1C(=O)NC(CC(N)=O)C(=O)NC2C(=O)NC3C(=O)NC(C(=O)NC(C(=O)OCC(=O)NCCCN)c4cc(O)cc(O)c4-c4cc3ccc4O)C(OC3CC(C)(N)C(O)C(C)O3)c3ccc(c(Cl)c3)Oc3cc2cc(c3OC2OC(CO)C(O)C(O)C2OC2CC(C)(NCc3ccc(-c4ccc(Cl)cc4)cc3)C(O)C(C)O2)Oc2ccc(cc2Cl)C1O (stereo not drawn) [Compound 90b]
Reply text: 0.25 µg/mL

Inquiry: Report measured MIC against S. aureus ATCC 13709, CAMHB + 50% human serum; entry is CNC(CC(C)C)C(=O)NC1C(=O)NC(CC(N)=O)C(=O)NC2C(=O)NC3C(=O)NC(C(=O)NC(C(=O)OCC(=O)N(C)CCN(C)C)c4cc(O)cc(O)c4-c4cc3ccc4O)C(OC3CC(C)(N)C(O)C(C)O3)c3ccc(c(Cl)c3)Oc3cc2cc(c3OC2OC(CO)C(O)C(O)C2OC2CC(C)(NCc3ccc(-c4ccc(Cl)cc4)cc3)C(O)C(C)O2)Oc2ccc(cc2Cl)C1O (stereo not drawn)
Reply text: 0.25 µg/mL

---

test system: S. aureus ATCC 13709; assay: In vitro antibacterial susceptibility (MIC, broth microdilution); assay type: cell-based; settings: CAMHB + 0.002% tween
List of MIC against S. aureus ATCC 13709, CAMHB + 0.002% tween values.
// note: answer is a bare numeric in µg/mL

Reference set (2 entries):
# compound, measuredResult
measured = [
    ("CC(C)CC(C(=O)NC1C(=O)NC(CC(N)=O)C(=O)NC2C(=O)NC3C(=O)NC(C(=O)NC(C(=O)O)c4cc(O)cc(O)c4-c4cc3ccc4O)C(OC3CC(C)(N)C(O)C(C)O3)c3ccc(c(Cl)c3)Oc3cc2cc(c3OC2OC(CO)C(O)C(O)C2OC2CC(C)(NCc3ccc(-c4ccc(Cl)cc4)cc3)C(O)C(C)O2)Oc2ccc(cc2Cl)C1O)N(C)C(=O)OCOC(=O)CCC(=O)N(CC(=O)O)CC(=O)O (stereo not drawn)", 4),
    ("CC(C)CC(C(=O)NC1C(=O)NC(CC(N)=O)C(=O)NC2C(=O)NC3C(=O)NC(C(=O)NC(C(=O)O)c4cc(O)cc(O)c4-c4cc3ccc4O)C(OC3CC(C)(N)C(O)C(C)O3)c3ccc(c(Cl)c3)Oc3cc2cc(c3OC2OC(CO)C(O)C(O)C2OC2CC(C)(NCc3ccc(-c4ccc(Cl)cc4)cc3)C(O)C(C)O2)Oc2ccc(cc2Cl)C1O)N(C)C(=O)OCOC(=O)C(CCCCN)NC(=O)C(N)CCCCN (stereo not drawn)", 0.5),
]

Now let's try a different one.
Inquiry: Report measured MIC against S. aureus ATCC 13709, CAMHB + 0.002% tween; entry is CNC(CC(C)C)C(=O)NC1C(=O)NC(CC(N)=O)C(=O)NC2C(=O)NC3C(=O)NC(C(=O)NC(C(=O)OCC(=O)NCCCCN)c4cc(O)cc(O)c4-c4cc3ccc4O)C(OC3CC(C)(N)C(O)C(C)O3)c3ccc(c(Cl)c3)Oc3cc2cc(c3OC2OC(CO)C(O)C(O)C2OC2CC(C)(NCc3ccc(-c4ccc(Cl)cc4)cc3)C(O)C(C)O2)Oc2ccc(cc2Cl)C1O (stereo not drawn) [Compound 90c]
Reply text: 0.25
